All values here come from patent US11633394B2.

tested on: NCI-H1792 cells; test: Anti proliferative activity in NCI-H1792 cells by XTT assay; assay type: cell-based; settings: Homo sapiens, NCI-H1792, 72 h, H1792 cell line, 72 hours incubation
pIC50: −log10 of the molar value.
Reported pIC50 by item:

Study these solved cases before continuing.
• C=CC(=O)N1CCN(C(=O)NC(C)C#Cc2ccc(F)c(Cl)c2)CC1 (centres unmarked) = > 5.00
• CC(C#Cc1ccc(Cl)c(Cl)c1)NC(=O)N1CCN(C(=O)/C=C/C(N)=O)CC1 (racemic) = < 4.60
• C=CS(=O)(=O)N[C@H]1CC[C@H](C(=O)NC(C)C#Cc2ccc(Cl)c(Cl)c2)CC1 (mixture of isomers) = > 5.00

Field pIC50 (NCI-H1792 cells), entry C=CC(=O)N1CCN(C(=O)NC(C)C#Cc2ccc(C)c(Cl)c2)CC1 (centres unmarked) : 4.60 to 5.00

Measured pIC50 for this entry C=CC(=O)Nc1ccc(C(=O)NC(C)C#Cc2ccc(Cl)c(Cl)c2)cc1 (racemic) on NCI-H1792 cells: > 5.00
